- experimentalDetails: qHTS assay for small molecule agonists of the antioxidant response element (ARE) signaling pathway (AID 743202); as to activation: % is scaled to controls: 0 for no effect and ±100 for the full control effect
- experimentalParameters: HepG2 ARE-bla reporter, beta-lactamase FRET, 16 h; series mostly up to 73.3 µM
- Text: U.S. Tox21 Program National Center for Advancing Translational Sciences [NCATS] NIH Chemical Genomics Center [NCGC] U.S. Environmental Protection Agency [EPA] National Institutes of Environmental Health Sciences [NIEHS] National Toxicology Program [NTP] U.S. Food and Drug Administration [FDA] […] The activation of the report gene under culture conditions can be detected by fluorescence intensity. […]
Records with an inconclusive call do not appear. Active and inactive are the calls of the source. Calls follow the shape of the dose curve; as a rule, active = well fitted activation curve with a large enough effect in the signal ratio in the repeat runs (not every such curve was filed as active); inconclusive = weak or mixed curves, or effect the other way; inactive = no such curve, though single readings can be large or run the other way; the % refers to the signal ratio.
Answer with one of the outcomes given here: true (1) for active, false (0) for inactive

[Q] Look up the recorded call for `Cc1cc(Cl)ccc1OCCCC(=O)O` in this test.
[A] false (0)

[Q] Look up the recorded call for `CCCCCCCCCCCOC(=O)c1ccccc1C(=O)OCCCCCCCCCCC` in this test.
[A] false (0)

[Q] Look up the recorded call for `CCCCCCCCOC(=O)c1ccccc1C(=O)OCCCCCCCC` in this test.
[A] false (0)

[Q] Look up the recorded call for `Cc1ccc(OP(=O)(Oc2ccc(C)cc2)Oc2ccc(C)cc2)cc1` in this test.
[A] false (0)

[Q] Look up the recorded call for ClC1C(Cl)C(Cl)C(Cl)C(Cl)C1Cl (configuration not stated) in this test.
[A] false (0)

[Q] Look up the recorded call for `CCN(CC)C(=O)/C(Cl)=C(\C)OP(=O)(OC)OC` in this test.
[A] false (0)

[Q] Look up the recorded call for `Clc1nc(Cl)nc(Cl)n1` in this test.
[A] false (0)

[Q] Look up the recorded call for `C=CCc1ccc(OC)cc1` in this test.
[A] false (0)

[Q] Look up the recorded call for `N#CC(Br)Br` in this test.
[A] true (1)

[Q] Look up the recorded call for `c1ccc(N=Nc2ccccc2)cc1` in this test.
[A] false (0)

[Q] Look up the recorded call for `O=P(Oc1ccccc1)(Oc1ccccc1)Oc1ccccc1` in this test.
[A] false (0)

[Q] Look up the recorded call for CCCCC(CC)COC(=O)c1ccc(C(=O)OCC(CC)CCCC)c(C(=O)OCC(CC)CCCC)c1 (configuration not stated) in this test.
[A] false (0)

[Q] Look up the recorded call for CCC(C)c1ccc(O)cc1 (configuration not stated) in this test.
[A] false (0)

[Q] Look up the recorded call for `CN(C)C(=O)Nc1ccc(Cl)cc1` in this test.
[A] false (0)

[Q] Look up the recorded call for `Nc1ccc(Cl)c(Cl)c1` in this test.
[A] false (0)

[Q] Look up the recorded call for `COC(=O)c1sccc1S(=O)(=O)NC(=O)Nc1nc(C)nc(OC)n1` in this test.
[A] false (0)

[Q] Look up the recorded call for `Cc1cc(C)cc(C)c1` in this test.
[A] false (0)

[Q] Look up the recorded call for `O=[N+]([O-])c1ccc(O)c([N+](=O)[O-])c1` in this test.
[A] true (1)

[Q] Look up the recorded call for `CC(C)N(C(=O)SCC(Cl)=C(Cl)Cl)C(C)C` in this test.
[A] false (0)

[Q] Look up the recorded call for CCCCC(CC)COC(=O)Cl (configuration not stated) in this test.
[A] false (0)

[Q] Look up the recorded call for `Oc1cc(Cl)ccc1Cl` in this test.
[A] false (0)

[Q] Look up the recorded call for `O=Cc1ccco1` in this test.
[A] false (0)
